Target or system serotonin 2 receptor (Rattus norvegicus); recorded quantity pKi.
pKi: −log10 of the molar value. Where a name gives a salt, the structure may show the parent alone.
measured_endpoint: pKi

P = CCN1CCN(c2nc(-c3ccc(S(=O)(=O)NCCOC)cc3)cc3ccccc23)CC1 [Example 354, dihydrochloride]
Q = CCN1CCN(c2nc(-c3ccc(NCCO)cc3)cc3ccccc23)CC1 [Example 67, Hydrochloride]
R = CCC(O)c1ccc(-c2cc3ccccc3c(N3CCN(CC)CC3)n2)s1 (stereo not shown) [Example 165, hydrochloride]
S = CCN1CCN(c2nc(-c3ccc(OC)cc3)cc3ccccc23)CC1
**Q:** Rank the listed compounds, smallest pKi first and largest last. Rank them, then answer with their labels in that order.
**A:** R, S, Q, P
(R: 7.60, S: 7.96, Q: 8.18, P: 8.89)

I = CCN1CCN(c2nc(-c3ccc([C@@H]4C[C@@H](O)CCO4)cc3)cc3ccsc23)CC1 (relative stereo) [Example 455, dihydrochloride]
II = CCN1CCN(c2nc(-c3ccc(OCC4OCCO4)cc3)cc3sccc23)CC1 [Example 460, oxalate]
**Q:** So which one has the bigger pKi here, I or II ? State your choice using its label.
**A:** I
(I: 7.40, II: 6.76)

---

target: serotonin 1A receptor (Rattus norvegicus, UniProt P19327); construct: To the receptor fraction of the hippocampus were added a test compound and 0.5 nM of [^3H]; 8-hydroxy-dipropylaminotetralin; from tissue; host or cells: rat hippocampus membrane fraction; assay: Binding test on [3H] 8-hydroxy-dipropylaminotetralin, hippocampus receptor fraction; design: species or system SD rats; settings: rat hippocampus receptor fraction, 0.5 nM [3H] 8-OH-DPAT, room temperature 30 min; read-out: 5HT1
Sequence (P19327 whole entry): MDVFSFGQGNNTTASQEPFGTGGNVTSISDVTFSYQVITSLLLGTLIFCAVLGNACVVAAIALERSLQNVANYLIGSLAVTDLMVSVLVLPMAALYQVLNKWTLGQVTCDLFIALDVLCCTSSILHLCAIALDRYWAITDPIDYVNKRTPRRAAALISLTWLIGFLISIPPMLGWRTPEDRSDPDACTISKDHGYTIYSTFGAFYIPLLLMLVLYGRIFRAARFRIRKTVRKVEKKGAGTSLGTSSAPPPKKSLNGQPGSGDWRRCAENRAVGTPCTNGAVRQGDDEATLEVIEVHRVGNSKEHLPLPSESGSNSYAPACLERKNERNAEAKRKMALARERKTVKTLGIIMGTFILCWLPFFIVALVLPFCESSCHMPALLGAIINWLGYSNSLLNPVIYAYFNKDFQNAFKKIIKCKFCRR
Counter-ions that a name gives are not always drawn.
measured_endpoint: Ki (µM)

Looking up `CCN1CCN(c2nc(-c3ccnc(Cl)c3)cc3ccccc23)CC1` , I found its Ki recorded as 0.0122

Ki for CCN1CCN(c2nc(-c3ccc(C(O)C4CCCCC4)cc3)cc3ccccc23)CC1 (centres unmarked) is 0.0164

Measured Ki of CCN1CCN(c2nc(NCc3ccc(OC)cc3)cc3ccccc23)CC1 [Example 220, oxalate] : 0.00053

The compound CCN1CCN(c2nc(/C=C/c3cccc(N4CCOCC4)c3)cc3ccccc23)CC1 [Example 204, Oxalate] showed Ki equal to 0.0255

CCN1CCN(c2nc(C#Cc3ccc(OCCO)cc3)cc3ccccc23)CC1 [Example 183, Dihydrochloride] yielded Ki of 0.0141

1 = CCN1CCN(c2nc(C#CC(=O)c3ccccc3)cc3ccccc23)CC1 [Example 184, Oxalate]
2 = CCN1CCN(c2nc(-c3ccc(OCC(C)O)cc3)cc3cccnc23)CC1 (stereo in doubt) [Example 246, Dihydrochloride]
3 = CCN1CCN(c2nc(-c3ccc(CO)cc3)cc3ccccc23)CC1 [Example 17, hydrochloride]
**Q:** Number of compounds to sort: 3. Sort criterion: Ki, ascending. Would you mind listing the labels in the order asked for?
**A:** 3, 1, 2

---

target: serotonin 2 receptor (Rattus norvegicus); construct: To the receptor fraction of the cerebral cortex were added a test compound and 0.3 nM of [^3H] ketanserin; from tissue; host or cells: rat cerebral cortex membrane fraction; assay: Binding test on [3H] ketanserin, cerebral cortex receptor fraction; set-up: species or system SD rats; conditions: 0.3 nM [3H] ketanserin, 37° C. 15 min, read-out: 5HT2
Sequence (P14842 whole entry): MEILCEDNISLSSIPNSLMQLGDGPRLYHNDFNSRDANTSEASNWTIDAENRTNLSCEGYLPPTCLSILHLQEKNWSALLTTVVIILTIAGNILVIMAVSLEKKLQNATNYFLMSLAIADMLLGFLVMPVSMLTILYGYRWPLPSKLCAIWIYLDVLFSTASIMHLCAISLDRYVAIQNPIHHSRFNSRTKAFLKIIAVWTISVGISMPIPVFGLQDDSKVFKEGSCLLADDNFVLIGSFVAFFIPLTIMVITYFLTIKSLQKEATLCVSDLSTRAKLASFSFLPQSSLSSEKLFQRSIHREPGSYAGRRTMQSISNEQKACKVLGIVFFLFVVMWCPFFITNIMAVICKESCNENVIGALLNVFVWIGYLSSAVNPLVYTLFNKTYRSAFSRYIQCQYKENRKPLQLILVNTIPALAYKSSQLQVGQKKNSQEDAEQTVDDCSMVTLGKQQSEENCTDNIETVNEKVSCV
pKi: −log10 of the molar value. Structures can show the parent of a compound that is named as a salt.
measured_endpoint: pKi

Use the examples below as a reference point.
Briefly, pKi measured for CCN1CCN(c2nc(-c3ccc(OCC#N)cc3)cc3ccccc23)CC1 [Example 51, Hydrochloride] : 8.73

Lookup result for CCN1CCN(c2nc(Sc3ccccc3)cc3ccccc23)CC1 [Example 374, oxalate] ; measured pKi: 7.61

Record summary for CCC(C)NS(=O)(=O)c1ccc(-c2cc3ccccc3c(N3CCN(CC)CC3)n2)cc1 (stereo not shown) [Example 360, dihydrochloride] : reported pKi = 8.82

Data point: CCN1CCN(c2nc(-c3ccc(C4=CCOCC4)s3)cc3ccccc23)CC1 [Example 176, Hydrochloride] ; pKi = 7.91

What the record says about CCCCNC(=O)Cc1ccc(-c2cc3ccccc3c(N3CCN(CC)CC3)n2)cc1 [Example 89, Hydrochloride] : pKi is 8.00

1 = CCN1CCN(c2nc(-c3ccc(CNS(=O)(=O)CC)c(Cl)c3)cc3ccccc23)CC1 [Example 91, Hydrochloride]
2 = CCN1CCN(c2nc(-c3ccc(OC)c(CCCO)c3)cc3ccccc23)CC1 [Example 34, hydrochloride]
3 = CCN1CCN(c2nc(-c3ccc(OCCOC)nc3)cc3ccsc23)CC1 [Example 269, hydrochloride]
4 = CCC(=O)NCc1ccc(-c2cc3ccccc3c(N3CCN(CC)CC3)n2)cc1 [Example 85, Hydrochloride]
**Q:** Sort by pKi, descending. // ordering of labels required in reply
**A:** 1, 4, 2, 3
(1: 8.80, 4: 8.01, 2: 7.76, 3: 7.23)

---

pKi: −log10 of the molar value. Counter-ions that a name gives are not always drawn.
Observed pKi, system serotonin 2 receptor (Rattus norvegicus, UniProt P14842).
measured_endpoint: pKi

Lab book: pKi of CCN1CCN(c2nc(-c3ccc(OCCOC)cc3)cc3ccccc23)CC1 [Example 42, dihydrochloride] noted as 8.36

// field: pKi; key: CCC(O)c1cc(-c2cc3ccccc3c(N3CCN(CC)CC3)n2)cs1 (stereo not shown) [Example 164, hydrochloride] ; value = 7.93

molecule CCCC(O)c1ccc(-c2cc3sccc3c(N3CCN(CC)CC3)n2)cc1 (stereo not shown) , pKi observed: 8.19

Memo: CCN1CCN(c2nc(/C=C(\C)c3cccc(N4CCOCC4)c3)cc3ccccc23)CC1 [Example 207, Oxalate] , reported pKi: 7.75

// field: pKi; key: CCN1CCN(c2nc(-c3ccc(CCCO)c(Cl)c3)cc3ccsc23)CC1 [Example 257, Oxalate] ; value = 7.63

P = CCN1CCN(c2nc(-c3cccc(OCCO)c3)cc3sccc23)CC1 [Example 284, dihydrochloride]
Q = CCN1CCN(c2nc(/C=C/c3ccc(OCCO)cc3)cc3ccccc23)CC1 [Example 198, Oxalate]
R = CCN1CCN(c2nc(-c3ccc(CC(C)CO)cc3)cc3ccsc23)CC1 (stereo not shown) [Example 441, dihydrochloride]
S = CCCNS(=O)(=O)Cc1ccc(-c2cc3ccccc3c(N3CCN(CC)CC3)n2)cc1 [Example 81, Hydrochloride]
T = CCN1CCN(c2nc(-c3ccc(OCC(O)CO)cc3)cc3ccccc23)CC1 (stereo not shown) [Example 337, dihydrochloride]
**Q:** Hey, can you sort those molecules up there by pKi, smallest first? To answer, arrange all of the labels according to the requested order.
**A:** P, S, Q, T, R

---

Structures can show the parent of a compound that is named as a salt.
measured_endpoint: melting point

Below, each entry is followed by its recorded melting point result.
Data point: CCCN1CCN(c2nc(-c3ccc(OCC(C)(C)O)cc3)cc3sccc23)CC1 (as salt: hydrochloride) ; melting point = 133 to 135 °C

melting point for CCN1CCN(c2nc(-c3ccc(C(O)C4CCCCC4)cc3)cc3ccsc23)CC1 (centres unmarked) (as salt: hydrochloride) [Example 457, dihydrochloride] is 127.5 to 129 °C

Noted for CCN1CCN(c2nc(-c3ccc4c(c3)CC(CO)CO4)cc3ccccc23)CC1 (centres unmarked) (as salt: hydrochloride) : its melting point reads 168 to 172 °C

Notebook: CCN1CCN(c2nc(-c3ccc(CN4CCSCC4)cc3)cc3ccccc23)CC1 (as salt: hydrochloride) , melting point read as 193 to 197 °C

Lab book: melting point of CCN1CCN(c2nc(C3CCc4ccc(OC)cc43)cc3ccccc23)CC1 (centres unmarked) (as salt: oxalate) noted as 122 to 124 °C

Continuing:
Input CCNS(=O)(=O)c1ccc(-c2cc3ccccc3c(N3CCN(CC)CC3)n2)cc1 (as salt: hydrochloride) [Example 357, dihydrochloride] . Output melting point: 147 to 149 °C

---

biological target: serotonin 1A receptor (Rattus norvegicus); construct: To the receptor fraction of the hippocampus were added a test compound and 0.5 nM of [^3H]; 8-hydroxy-dipropylaminotetralin; from tissue; host or cells: rat hippocampus membrane fraction; experiment: Binding test on [3H] 8-hydroxy-dipropylaminotetralin, hippocampus receptor fraction; set-up: species or system SD rats; conditions: rat hippocampus receptor fraction, 0.5 nM [3H] 8-OH-DPAT, room temperature 30 min; read-out: 5HT1
pKi: −log10 of the molar value. Where a name gives a salt, the structure may show the parent alone.
measured_endpoint: pKi

compound CCN1CCN(c2nc(-c3ccc([C@@H]4C[C@H](O)CCO4)cc3)cc3ccccc23)CC1 (relative stereo) [Example 401, Dihydrochloride] , pKi observed: 7.50

A = CCN1CCN(c2nc(-c3ccc(OC)cc3)cc3cccnc23)CC1 [Example 244, Hydrochloride]
B = CCN1CCN(c2nc(-c3ccc(C(F)(F)F)cc3)cc3ccccc23)CC1 [Example 4, Dihydrochloride]
C = CCN1CCN(c2nc(-c3ccc(CS(=O)(=O)N(CC)CC)cc3)cc3ccccc23)CC1 [Example 82, Hydrochloride]
D = CCN1CCN(c2nc(-c3ccc(C(O)C(C)(C)CO)cc3)cc3ccccc23)CC1 (stereo not drawn) [Example 391, Dihydrochloride]
**Q:** Give the ascending ranking of the items by reported pKi. Form entry: ranked labels (order as requested).
**A:** B, A, D, C
